From: the nanobody polyreactivity screen of Harvey et al. (2022)

assay: yeast display, Sf9 membrane polyspecificity reagent, FACS + sequencing; frameworks hold sequencing errors
PARAMETER_MEASURED: polyreactivity (PSR sort gate)

Here is how some sequences turned out for polyreactivity (PSR sort gate).
SEQUENCE_CODE: QVQLVESGGGLVQAGGSLRLSCAASGRIFFGYAMGWYRQAPGKERELVATITSGGSTYYADSVKGRFTISRDNAKNTVYLQMNSLKPEDTAVYYCASQLHWVFTSGWAYRGSYDYWGQGTQVTVSS
polyreactivity (PSR sort gate): low polyreactivity
//
SEQUENCE_CODE: QVQLVESGGGLVQAGGSLRLSCAASGSTFSYYAMGWYRQAPGKERELVAAISGRGGSTYYADSVKGRFTISRDNAKNTVYLQMNSLKPEDTAVYYCAKGRLYTAYGLYSWGQGTQVTVSS
polyreactivity (PSR sort gate): high polyreactivity
//
SEQUENCE_CODE: QVQLVESGGGLVQAGGSLRISCAASGLSFYRYTMGWYRHAPGKEREFVAAITAGGSTYYADSVKGRFTISRDNAKNPVYLQMNRLKPEDTAVYYCAPRVLMEQYTYIKYDYWGQGTQVTVSS
polyreactivity (PSR sort gate): high polyreactivity
//
SEQUENCE_CODE: QVQLVEEGGGLVQAGGTRRLSCAASGSTFTVYVMGWYRQAPGQERELVAAINLSGGRTYYADSVKGRFTISRDNAKNTVYLQMNSLKPEDTAVYYCAADGSTWGDYRTYGYWGQGTLVTVSS
polyreactivity (PSR sort gate): low polyreactivity
//
SEQUENCE_CODE: QVQLVESGGGLVQAGGSLRLSCAASGSTFGIYAMGWYRQAPGKERELVAAISRSGDSTYYADSVKGRFTISRDNAKNTVYLQMNSLKPEDTAVYYCAADSFRLRYWAVTTHRVQYDYWGQGTQVTVSS
polyreactivity (PSR sort gate): low polyreactivity
//
SEQUENCE_CODE: QVQLVESGGGLVQAGGSLRLSCAASGSIFGHNTMGWYRQPPGKERELVAAITWNGGRTYYADSVKGRFTISRDNAKNTVYLQMNSLKPEDTAVYYCNAVVKTYGYKAHRYPSSRLNYWGQGTQVTVSS
polyreactivity (PSR sort gate): high polyreactivity
//
SEQUENCE_CODE: QVQLVESGGGLVQAGGSLRLSCAASGSTFVINDMGWYRQAPGKERELVAAITWGSGSTYYADSVKGRFTISRDNAKNTVYLQMNSLKPEDTAVYYCAADVYFGLVGYYAEYNDYWGQGTQVNVSS
polyreactivity (PSR sort gate): low polyreactivity
//
SEQUENCE_CODE: QVQLVESGGGLVQAGGSLGLSCAAYGSIFVGNAMGWYRQAPGNERELVAAICRSGGITYYADSVKGRFTISRDNAKNTVYLQMNSLKPEDTAVYYCAARHRYYYQYRSDYWGQGTQVTVSS
polyreactivity (PSR sort gate): high polyreactivity

Could you now consider this next sequence?
// polyreactivity (PSR sort gate) lookup, key: QVQLVESGVGLVQAGGSLRLSCAASGYTFLYYAMGWYRQAPGTERELVAAISSGGRTYYADSVKGRFTISRDNAKNTVYLQMNSLKPEVTAVYYCNTGALIHNGYYGLDYWGQGTQVTVSS
high polyreactivity
